Listed next: entries and their corresponding mean fluorescence intensity.
Biological target: his-labeled human IL-13 (immunogen A) (human) (UniProt P35225)
Assay: FACS blocking, biotin-IL-13 on IL-13Ra2 HEK293 cells; antibody at 33.33 nM
READOUT_TYPE: mean fluorescence intensity

c28A2E11 (mouse-human chimeric IL-13 antibody) (antibody, V domains shown) VH: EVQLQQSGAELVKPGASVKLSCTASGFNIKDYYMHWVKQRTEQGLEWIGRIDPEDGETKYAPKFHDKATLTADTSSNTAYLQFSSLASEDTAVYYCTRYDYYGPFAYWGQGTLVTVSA VL: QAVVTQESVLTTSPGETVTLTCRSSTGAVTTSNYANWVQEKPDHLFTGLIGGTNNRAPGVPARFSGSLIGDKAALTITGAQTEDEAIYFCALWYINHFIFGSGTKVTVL : 64.8
c29D9H8 (mouse-human chimeric IL-13 antibody) (antibody, V domains shown) VH: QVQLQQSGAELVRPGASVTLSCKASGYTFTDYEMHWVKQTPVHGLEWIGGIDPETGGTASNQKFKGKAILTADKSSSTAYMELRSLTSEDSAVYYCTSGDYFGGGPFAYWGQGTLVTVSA VL: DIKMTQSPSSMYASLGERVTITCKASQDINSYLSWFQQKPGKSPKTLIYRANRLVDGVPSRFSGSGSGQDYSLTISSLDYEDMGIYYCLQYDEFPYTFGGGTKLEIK : 22.8
